- Test system: NO production induced by INF-γ in mouse macrophages
- assay_procedure: Inhibition of NO production induced by IFN-γ in mouse macrophages (Griess reaction)
- Type: cell-based
- details: Mus musculus, Macrophage, 48 h, Table 3; NO production induced by IFN-γ; tested 0.01 pM-1 μM (10-fold dilutions); average of several separate experiments
observed_property: IC50 (pM)

{"structure": "CC1(C)CC[C@]2(C(=O)O)CC[C@]3(C)[C@H](C(=O)C=C4[C@@]5(C)C=C(C#N)C(=O)C(C)(C)[C@@H]5CC[C@]43C)[C@@H]2C1", "observed_value": 700}
